Consider the following compounds; for each one, report its melting point.

Entry Nc1nc(=O)n(C(=O)OCC(Cl)(Cl)Cl)cc1F ; melting point = 219.3 to 221.1 °C

Entry COC(=O)n1cc(F)c(N)nc1=O ; melting point = 240 to 243 °C

Entry Cc1ccc(OC(=O)n2cc(F)c(N)nc2=O)cc1 ; melting point = 235 to 237 °C

Entry Nc1nc(=O)n(C(=O)Oc2ccccc2)cc1F ; melting point = 175 to 180 °C

Entry CN(C)/C=N/c1nc(=O)n(C(=O)OCc2ccccc2)cc1F ; melting point = 123.2 to 124.3 °C

Entry Cc1ccc(OC(=O)n2cc(F)c(/N=C/N(C)C)nc2=O)cc1 ; melting point = 179 to 181.2 °C

Entry CN(C)/C=N/c1nc(=O)n(C(=O)OCC(C)(C)C)cc1F ; melting point = 162 to 164 °C

Entry CN(C)/C=N/c1nc(=O)n(C(=O)OC2CCCC2)cc1F ; melting point = 103.5 to 104.6 °C

Entry CCOC(=O)n1cc(F)c(N)nc1=O ; melting point = 190 to 193 °C

Entry CC(C)OC(=O)n1cc(F)c(N)nc1=O ; melting point = 217 to 219 °C

Entry COCCOC(=O)n1cc(F)c(N)nc1=O ; melting point = 94.2 to 96.3 °C

Entry Nc1nc(=O)n(C(=O)Oc2ccc3ccccc3c2)cc1F ; melting point = 165.8 to 168.1 °C

Entry Nc1nc(=O)n(C(=O)OCc2ccccc2Cl)cc1F ; melting point = 145.8 to 146.8 °C

Entry Nc1nc(=O)n(C(=O)OC2CCCC2)cc1F ; melting point = 139.8 to 140.6 °C

Entry Nc1nc(=O)n(C(=O)OCCOCc2ccccc2)cc1F ; melting point = 142.8 to 145.1 °C

Entry COc1ccc(OC(=O)n2cc(F)c(N)nc2=O)cc1 ; melting point = 172.4 to 173.6 °C

Entry Nc1nc(=O)n(C(=O)OCCCCl)cc1F ; melting point = 145.1 to 146.3 °C

Entry Nc1nc(=O)n(C(=O)Oc2ccc(Cl)cc2)cc1F ; melting point = 143.2 to 146.3 °C
